# Tested on: Mycobacterium tuberculosis
# assay_procedure: Antimycobacterial activity against Mycobacterium bovis BCG assessed as inhibition of bacterial growth at 10 ug/ml measured by microplate alamar blue assay
# Type: functional
# test_settings: variant bovis BCG
assay_readout: inhibition at 10 µg/mL (%)
Write down the numeric answer in % and omit the unit.

Give a short answer stating reported inhibition at 10 µg/mL for N[C@@H]1CONC1=O .
71

Give a short answer stating reported inhibition at 10 µg/mL for CCC#Cc1c(C)n([C@@H]2O[C@H](CO)[C@@H](O)[C@H]2O)c(=O)[nH]c1=O .
0

Give a short answer stating reported inhibition at 10 µg/mL for CCCC#Cc1c(C)n([C@@H]2O[C@H](CO)[C@@H](O)[C@H]2O)c(=O)[nH]c1=O .
0

Give a short answer stating reported inhibition at 10 µg/mL for Cc1c(C#CC2CC2)c(=O)[nH]c(=O)n1[C@@H]1O[C@H](CO)[C@@H](O)[C@H]1O .
80

Give a short answer stating reported inhibition at 10 µg/mL for CC#Cc1c(C)n([C@@H]2O[C@H](CO)[C@@H](O)[C@H]2O)c(=O)[nH]c1=O .
0

Give a short answer stating reported inhibition at 10 µg/mL for Cc1c(C#Cc2ccccc2)c(=O)[nH]c(=O)n1[C@@H]1O[C@H](CO)[C@@H](O)[C@H]1O .
75
